Source listed as PubChem BioAssay (NCI).

System: BT-549 breast
test details: NCI-60 one-dose screen, 48 h
settings: 10 µM unless noted
The panel holds about 83,000 compounds, 20% with a hit somewhere; the sample as a whole holds those more often. Active and inactive are the calls of the source. The calls were made as follows: active = growth percent below 10; inactive = the rest.
Hello, when you answer, please use one of the following outcomes: 1 (yes) = active, 0 (no) = inactive

Worked examples, 6 compounds total:
{"compound": "O=[N+]([O-])c1ccc(Nc2nc(NCCN3CCOCC3)ncc2[N+](=O)[O-])cc1", "assigned category": "0 (no)"}
{"compound": "CC(=O)c1nc2ccccc2n1CC(=O)c1cccc(Cl)c1", "assigned category": "0 (no)"}
{"compound": "COc1ccc(-c2cc(=O)c3c(OC)c4ccoc4cc3o2)cc1", "assigned category": "0 (no)"}
{"compound": "CCOC(=O)c1sc2nc(-c3cccc(O)c3)nc(N3CCOCC3)c2c1C", "assigned category": "0 (no)"}
{"compound": "CCCOc1cc2ccccc2cc1C(=O)Nc1nc(NC)c2c(ccc3nccc32)[nH]1", "assigned category": "1 (yes)"}
{"compound": "CC1=C(O)C(=O)C(C(C#N)(C#N)C(C#N)C#N)C1 (centres undefined)", "assigned category": "0 (no)"}

Asked: Hi team, can someone confirm the assay call for N#Cc1nnn(-c2ccc(S(N)(=O)=O)cc2)c1NC(=O)CCl ?
Given back: 0 (no)

Asked: Also O=S(=O)(Nc1ccc(OC(F)F)cc1)c1ccc(-c2cnc(C3CC3)o2)cc1 , if possible.
Given back: 0 (no)

Asked: Also C#CCOc1ccc2ncnc(Nc3cccc(CNC(=O)CCl)c3)c2c1 , if possible.
Given back: 0 (no)

Asked: Also COc1cc(-c2nc(C(=O)NCC(=O)NO)nn2-c2ccc(Cl)cc2)cc(OC)c1OC , if possible.
Given back: 0 (no)

Asked: Also COc1ccc(CN2c3ccccc3Oc3ccccc32)cc1F , if possible.
Given back: 0 (no)

Asked: Also COc1cccc(/C=C2\SC(=Nc3ccc(NC(C)=O)cc3)NC2=O)c1OC , if possible.
Given back: 0 (no)

Asked: Also CCc1c(Nc2ccccc2C)nc(N)[nH]c1=O , if possible.
Given back: 0 (no)

Asked: Also O=C1Nc2ccc(Br)cc2C12Oc1ccccc1C1CC(c3ccc(F)cc3)=NN12 (centres undefined) , if possible.
Given back: 0 (no)

Asked: Also CCN1CCN(c2nc(NCCCNc3ccnc4cc(Cl)ccc34)c3ccccc3n2)CC1 , if possible.
Given back: 0 (no)

Asked: Also FC(F)(F)c1ccc(-c2cn3nc(-c4c[nH]c5ccc(Br)cc45)sc3n2)cc1 , if possible.
Given back: 0 (no)

---

System: OVCAR-8 ovarian
test details: NCI-60 one-dose screen, 48 h
settings: 10 µM unless noted
About 83,000 compounds went through this panel and 20% of them were active in at least one assay; those are over-represented in the sample as a whole. The source made the active and inactive calls. Rule for the calls: active = growth percent below 10; inactive = the rest.
Hello, when you answer, please use one of the following outcomes: YES = active, NO = inactive

{"molecule": "FC(F)(F)c1ccc(-c2cn3nc(-c4c[nH]c5ccc(Br)cc45)sc3n2)cc1", "assigned category": "NO"}
{"molecule": "CCOC(=O)c1csc(NC(=O)COc2cccc(/C=C3\\CSc4ccccc4C3=O)c2)n1", "assigned category": "NO"}
{"molecule": "O=C1c2cc3c(cc2-c2c1c1ccc(F)cc1c(=O)n2CCCNCCO)OCO3", "assigned category": "YES"}
{"molecule": "Cc1cc(N2CCN(c3ccnc4cc(Cl)ccc34)CC2)nc(NC2CCCCC2)n1", "assigned category": "NO"}
{"molecule": "COc1cccc(/C=C2\\Oc3cc(OCCN4CCCC4)ccc3C2=O)c1", "assigned category": "NO"}

Asked: Hi team, can someone confirm the assay call for C=C1C(=O)O[C@H]2[C@H]1CC/C(COC(=O)NCc1ccc(OC)c(OC)c1)=C\CC[C@@]1(C)O[C@@H]21 ?
Given back: NO

Asked: Also CCOc1cc2ncc(C#N)c(Nc3ccc(F)c(Cl)c3)c2cc1NC(=O)CC1CCSS1 (centres undefined) , if possible.
Given back: YES

Asked: Also COc1ccc(-c2nnc(SCC(=O)c3ccc(Cl)cc3)o2)cc1 , if possible.
Given back: NO

---

Test system: SK-MEL-2 melanoma
test details: NCI-60 one-dose screen, 48 h (100 = growth as untreated, 0 = no growth, -100 = all killed)
settings: 10 µM unless noted
About 83,000 compounds went through this panel and 20% of them were active in at least one assay; those are over-represented in the sample as a whole. The source made the active and inactive calls. The calls were made as follows: active = growth percent below 10; inactive = the rest.
We begin with a simple list: items and their reported growth.

Below, 2 molecules whose answers are already recorded.
{"molecule": "COc1cc2c(cc1-c1c(C)noc1C)ncc1nc(C3CCCCC3)n([C@H](C)COC(F)F)c12", "growth": "69% (inactive)"}
{"molecule": "CC(=O)O[C@H]1C(=O)[C@@]2(C)[C@H]([C@H](OC(=O)c3ccccc3)[C@]3(O)C[C@H](OC(=O)[C@H](OC(=O)CCC(=O)OC4CCC(S/N=C(N)/N=C(\\N)N(C)C)CC4)[C@@H](NC(=O)c4ccccc4)c4ccccc4)C(C)=C1C3(C)C)[C@]1(OC(C)=O)CO[C@@H]1C[C@@H]2O (some centres undefined)", "growth": "12.8% (inactive)"}

Asked: Quick one: growth for COc1ccc(C2CC(c3ccc(Cl)cc3)=NN2/C=C2\SC(=S)N(NC(=O)Cc3ccccc3Nc3c(Cl)cccc3Cl)C2=O)cc1 (centres undefined) ?
Given back: 80.5% (inactive)

---

Test system: DU-145 prostate
test details: NCI-60 one-dose screen, 48 h
settings: 10 µM unless noted
About 83,000 compounds went through this panel and 20% of them were active in at least one assay; those are over-represented in the sample as a whole. Activity calls are given as the source filed them. The calls were made as follows: active = growth percent below 10; inactive = the rest.
Hello, when you answer, please use one of the following outcomes: active, inactive

{"compound": "CC(C)c1c(C(=O)c2ccccc2)c(-c2ccccc2)c(-c2ccc(F)cc2)n1CC[C@@H](O)C[C@@H](O)CC(=O)O", "assigned category": "inactive"}

Asked: Hi team, can someone confirm the assay call for CCCn1c(=O)[nH]c(N)c([C@H]2c3ccccc3Oc3[nH]c(=O)n(CCC)c(=O)c32)c1=O ?
Given back: inactive

Asked: Also Cc1cc(C)nc(SC2=C(Nc3cccc(Cl)c3C)C(=O)N(Cc3ccccc3)C2=O)n1 , if possible.
Given back: inactive

Asked: Also O=S(=O)(Nc1ccc(NS(=O)(=O)c2ccccc2)c(Cl)c1)c1ccccc1 , if possible.
Given back: inactive

Asked: Also NC(=O)c1cc(Cl)ccc1NC(=O)/C=C/c1ccccc1 , if possible.
Given back: active

Asked: Also c1csc(C2=NN3C(C2)c2ccccc2OC3c2ccncc2)c1 (stereo not given) , if possible.
Given back: inactive

Asked: Also CN1CCN(CCCOc2cccc3nc(Nc4cc(Cl)cc(Cl)c4)ccc23)CC1 , if possible.
Given back: active

---

Test system: T-47D breast
test details: NCI-60 one-dose screen, 48 h
settings: 10 µM unless noted
About 83,000 compounds went through this panel and 20% of them were active in at least one assay; those are over-represented in the sample as a whole. The source made the active and inactive calls. Rule for the calls: active = growth percent below 10; inactive = the rest.
Hello, when you answer, please use one of the following outcomes: active, inactive

Worked examples, 2 compounds total:
{"compound": "COc1cc(-c2nc3ccccc3[nH]2)ccc1OCC(=O)N=Nc1c(O)[nH]c2ccc(Cl)cc12", "assayed system": "T-47D breast", "assigned category": "active"}
{"compound": "CCc1c(Nc2ccccc2C)nc(N)[nH]c1=O", "assayed system": "T-47D breast", "assigned category": "inactive"}

Asked: Hi team, can someone confirm the assay call for O=C(/C=C/c1ccccc1)c1ccc(O)c(CN2CCN(c3cc4c(cc3F)c(=O)c(C(=O)O)cn4C3CC3)CC2)c1 ?
Given back: inactive

Asked: Also COc1ccc(SC2c3ccc(C)cc3Oc3nc(N)c(C#N)c(N)c32)cc1 (stereo not drawn) , if possible.
Given back: active

Asked: Also CCOC(=O)n1cc(-c2nonc2-c2cn(C)c3ncccc23)c2ccccc21 , if possible.
Given back: inactive

Asked: Also CC1(C)CC[C@]2(C(=O)Nc3ccccn3)CC[C@]3(C)C(=CC[C@@H]4[C@@]5(C)C/C(=C/c6cccnc6)C(=O)C(C)(C)[C@@H]5CC[C@]43C)[C@H]2C1 , if possible.
Given back: inactive

Asked: Also CCNC(=O)Oc1ccc(/C(=C(\C)c2ccc(Cl)cc2)c2ccc(OCCN3CCCCC3)cc2)cc1 , if possible.
Given back: inactive

Asked: Also CCCc1cc(=O)n2c(C(=O)Nc3cccc(C(=O)OCC)c3)c(C(=O)Nc3ccc(F)cc3)sc2n1 , if possible.
Given back: inactive

---

System: UO-31 renal
test details: NCI-60 one-dose screen, 48 h (100 = growth as untreated, 0 = no growth, -100 = all killed)
settings: 10 µM unless noted
About 83,000 compounds went through this panel and 20% of them were active in at least one assay; those are over-represented in the sample as a whole.
We begin with a simple list: items and their reported growth.
Give your result in % as a bare value.

Below, 4 molecules whose answers are already recorded.
{"molecule": "COc1ccc(/C=C\\c2cc(OC)c(OC)c(OC)c2)cc1OC(=O)c1cccc(Cn2cc(CCOC(=O)[C@H](N)Cc3cn(C)c4ccccc34)nn2)c1", "assayed system": "UO-31 renal", "uom": "%", "growth": 42.5}
{"molecule": "Cn1cc(C(=O)c2nc(-c3c[nH]c4ccccc34)no2)c2ccccc21", "assayed system": "UO-31 renal", "uom": "%", "growth": 61.6}
{"molecule": "C(=C\\c1nccc2c1[nH]c1ccccc12)/c1ccccc1", "assayed system": "UO-31 renal", "uom": "%", "growth": 13.2}
{"molecule": "COc1cc2c(cc1-c1c(C)noc1C)ncc1nc(C3CCC(F)(F)CC3)n([C@H](C)COC(F)F)c12", "assayed system": "UO-31 renal", "uom": "%", "growth": 25.3}

Asked: Identify the measured growth of FC(F)(F)Oc1ccc2nc3nc4ccc[nH]c4cc3c2c1 for UO-31 renal.
Given back: 61.8

Asked: Also CNc1ccc(-c2cc(=O)oc3ccc(Cl)cc23)cc1 , if possible.
Given back: 47.7

Asked: Also COc1cc2c(cc1-c1c(C)noc1C)ncc1nc(C3CCOCC3)n([C@H](C)COC(F)F)c12 , if possible.
Given back: 15.7

Asked: Also CCCCN(CCCC)CCCn1c(-c2ccccc2)ccc1-c1ccccc1 , if possible.
Given back: 56.9

Asked: Also O=C(CCl)Oc1ccc(-c2ccccc2)c(Br)c1 , if possible.
Given back: 92.8

Asked: Also CCC([N+](=O)[O-])S(=O)(=O)c1ccc(C)cc1 (stereo not given) , if possible.
Given back: 82
